Provenance of the data: PubChem BioAssay

- Test Name: RAM signaling pathway blockade in yeast – S. cerevisiae, Pdr1DBD-CYC8 efflux-inhibited sensitized strain, primary screen (AID 1298);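 also: 0% = DMSO untreated cells without growth and 100% = 10 µM 1-NA-PP1 full growth; higher means more yeast growth rescued from 5-FOA killing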
- Test Settings: S. cerevisiae cbk1-as DSE1-URA3 strain, 5-FOA growth OD615, 2 d; at 50 µM; active compounds read high
Measured Property: RAM network inhibition (%)

- CCOc1ccc(N(CC(=O)NCc2ccccc2)S(=O)(=O)c2c(C)noc2C)cc1: 3.95
- COC(=O)C1=CN(CCCN2CCCC2=O)C=C(C(=O)OC)C1c1ccccc1C(F)(F)F: 1.94
- COc1cc(OC)c(Nc2cc(C)nc3nc(C)nn23)cc1Cl: -0.72
- CC1CCN(c2ncnc3c2cnn3-c2ccccc2)CC1: -1.46
- CSc1oc(-c2ccc(F)cc2)nc1S(=O)(=O)c1ccccc1: 4.67

====

- Test Name: Restrictive medium S. cerevisiae growth inhibition, OD615, pilot screen of yeast lifespan reduction project, restrictive growth control (AID 706);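 also: modified DeaD lifespan yeast strain shifted to restrictive glucose medium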
- Test Settings: OD615, 48 h, at 10 µM, active compounds read high
Measured Property: growth inhibition (%)

- CCOc1ccc(/C(=N\O)C(C)NO)cc1 (stereo not given): -10.4
- Cc1cc2n(c1)CCn1c(C)ccc1-2: 14.5
- CC1(C(=O)NC2CCCCC2)CCC(=O)N1Cc1cccnc1 (stereo not given): -7.4
- O=C(C1CCC(Cn2c(=O)[nH]c3ccccc3c2=O)CC1)N1CCN(c2ccccc2)CC1 (stereo not given): -1.08
- Cc1ccc(S(=O)(=O)N(CC(=O)N2CCCC2)C2CCCCC2)cc1: 10.9

====

- Test Name: inhibitors of the yeast RAM network, pilot screen, dse1pr::URA3 reporter, 5-FOA selection (AID 869);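 also: 0% = DMSO wells with no growth and 100% = 10 µM 1-NA-PP1 with full growth; RAM network block rescues cells from 5-FOA so hits raise OD615 growth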
- Test Settings: S. cerevisiae dse1pr::URA3 5-FOA growth, OD615, 2 d; at 10 µM; active compounds read high; strain carries analog-sensitive mutant Cbk1 kinase
Given measured inhibition, output criterion met if it is greater than or equal to 1% and criterion not met if not.

• Cc1ccc2oc(=O)c3cc(C(=O)N4CCN(c5ncccn5)CC4)sc3c2c1 = criterion met
• CC(NC(=O)c1cccnc1)C(c1cccs1)N1CCN(C)CC1 (configuration not stated) = criterion not met
• Cc1noc(C)c1S(=O)(=O)NCc1ccc2c(c1)OCO2 = criterion met
• COc1ccc(C)c(S(=O)(=O)Nc2ccc(OCC(=O)O)cc2)c1 = criterion not met
• CC(=O)N1c2ccccc2N(Cc2ccc(C)cc2C)C(=O)C1(C)C = criterion met
• Cc1nn2cc(-c3ccccc3)nc2s1 = criterion not met
• O=C(CSc1nnc(-c2ccccn2)n1Cc1ccco1)c1ccc(Cl)cc1 = criterion met
• COc1ccccc1NC(=O)c1ccc(N)cc1 = criterion met
• O=C(NCCC1=CCCCC1)C1CCCN(S(=O)(=O)c2cccnc2)C1 (configuration not stated) = criterion met
• COc1ccc(CCN=C2SCC(=O)N2C)cc1OC = criterion met
• COC(=O)c1ccc(NC(=O)Cn2nc(SC)n(N)c2=S)cc1 = criterion met

====

- Test Name: growth suppression of beta-catenin knockout HCT116, pilot screen, human colon tumor cells (AID 823);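 also: 0% = wells killed by 20 µM Hyamine and 100% = untreated DMSO cell wells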
- Test Settings: CellTiter-Glo, 60 h, at 10 µM, active compounds read low
Records with an inconclusive call do not appear.
The reader will find reported viability values listed item by item below.
Measured Property: viability (%)

* COc1ccc(Br)cc1/C=N/n1c(C)nnc1C | 66
* c1ccc(Cn2ncc3c(N4CCCCC4)ncnc32)cc1 | 96.2
* CC(=O)c1c(NCc2ccccc2)nc(=O)n(-c2ccccc2)c1C | 94.7
* CCn1cc(SCC(N)=O)c2ccccc21 | 99.1
* O=C(Nc1cccc2ccccc12)N1CCN(c2ccc(F)cc2)CC1 | 98.6
* Cc1ccc(NC(=O)CSc2nnc(-c3ccncc3)n2N)cc1C | 97.8
* COc1ccc(-c2cc(C(F)(F)F)n3nc(C(=O)N4CCCC4)cc3n2)cc1 | 93.9
* CC1=C(C(=O)Nc2ccccc2)C(c2ccco2)C(C#N)=C(SCc2ccccc2)N1 (stereo unspecified) | 11.8
* Cc1ccc2c(c1)N(CCCC(=O)NCc1ccc3c(c1)OCO3)C(=O)CO2 | 95.4
* COc1ccc(CCNC(=O)Cc2cc(=O)[nH]c(=O)[nH]2)cc1OC | 96.7
* O=C(Cn1c(=O)oc2cc(S(=O)(=O)N3CCCC3)ccc21)N1CCN(c2ccccn2)CC1 | 90
* O=C(NCc1ccco1)C1CCN(S(=O)(=O)c2cccc3cccnc23)CC1 | 99.4
* Cc1cccc(C)c1Nc1nc2ccccc2o1 | 93.3
* N/C(CC(=O)Nc1cccc(C(F)(F)F)c1)=N/O | 96.5
* Cc1ccccc1OCc1nc(-c2ccc(-n3cccc3)cc2)no1 | 81.3
* CCOc1cc(C(=O)Nc2nnc(C)s2)cc(OCC)c1OCC | 108
* Cc1ccc(C(=O)NCc2ccc(Cl)c(Cl)c2)o1 | 98
* Cc1ccc(N2CC(c3nc4ccccc4[nH]3)CC2=O)c(C)c1 (stereo unspecified) | 107
* COc1ccccc1NC(=O)Nc1ccc(Br)cn1 | 92.6
* CCC(CO)N=CC1=C(O)C(C(=O)c2ccccc2)CCC1=O (stereo unspecified) | 96.5
* COC(=O)c1ccccc1NC(=O)CSc1nccn1C | 93.1
* Cc1c(C(=O)N2CCCC2)oc2c1-c1[nH]ncc1CC2 | 105
* CCOc1ccc(S(=O)(=O)N(CC(=O)O)c2ccccc2)cc1 | 102
* Cc1ccc(-c2nc3ncccc3o2)cc1NC(=O)Cc1ccc(Cl)cc1 | 81.8
* Cc1ccccc1NC(=O)NCCN1C(=O)C2C3C=CC(C3)C2C1=O (stereo unspecified) | 103
* CCN1CCN(CC(=O)Nc2ccc3c(c2)OCO3)C(=O)C1=O | 101
